src = patent US5342942A

# test target: extracellular domain of the p75 receptor (Homo sapiens)
# Construct: purchased Chiron Corporation, Emeryville, Calif; (originally); also commercially available from Austral Biologicals, Inc. (San Diego, Calif.)
# Sequence (P01138 122-241): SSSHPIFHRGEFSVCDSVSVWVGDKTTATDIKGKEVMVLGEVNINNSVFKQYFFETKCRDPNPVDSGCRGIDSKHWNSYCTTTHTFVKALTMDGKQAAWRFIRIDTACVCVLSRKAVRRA
# assay remarks: inhibition of ^125 I-NGF binding to the extracellular domain of the p75 receptor (truncated form, residues 1-222, microtiter plate)
# setup conditions: 2 nM ^125 I-NGF, 2 hours at room temperature; read-out: Concentration (IC50, nM): inhibition of ^125 I-NGF binding to the extracellular domain of the p75 receptor
value kind: IC50 (nM)

compound	value
Cn1c2ccc(NC(=O)c3ccc(C(C)(C)C)cc3)cc2c(=O)n2nc(C(=O)O)cc12 [Example 3l]	862

[A] Cc1ccc2c(c1)c(=O)n1nc(C(=O)O)cc1n2C [Me Me H]
[B] Cn1c2ccc(NC(=O)c3ccc(I)cc3)cc2c(=O)n2nc(C(=O)O)cc12 [Example 3j]
QUERY: // compare measured IC50, left A , right B , return larger When you have decided, please share the label of that item.
RESULT: A
(A: 9700 nM, B: 472 nM)

[a] Cn1c2ccc(NC(=O)c3ccc(F)cc3)cc2c(=O)n2nc(C(=O)O)cc12 [Example 3s]
[b] O=C(O)c1ccc2c(=O)n3nc(C(=O)O)cc3[nH]c2c1 [H H CO2 H]
QUERY: // compare measured IC50, left a , right b , return larger When you have decided, please share the label of that item.
RESULT: b
(b: 1100 nM, a: 266 nM)

[a] Cn1c2ccc(NC(=O)c3cccs3)cc2c(=O)n2nc(C(=O)O)cc12 [Example 3a]
[b] Cn1c2ccc(NC(=O)CCc3ccccc3)cc2c(=O)n2nc(C(=O)O)cc12 [Example 3h]
[c] Cn1c2ccc(NC(=O)c3ccc4ccccc4c3)cc2c(=O)n2nc(C(=O)O)cc12 [Example 3i]
QUERY: # ascending order, key=IC50 Provide the labels, sequenced as the question asks.
RESULT: c, a, b
(c: 431 nM, a: 690 nM, b: 1710 nM)

###

# test target: extracellular domain of the p75 receptor (Homo sapiens)
# Construct: purchased Chiron Corporation, Emeryville, Calif; (originally); also commercially available from Austral Biologicals, Inc. (San Diego, Calif.)
# assay remarks: inhibition of ^125 I-NGF binding to the extracellular domain of the p75 receptor (truncated form, residues 1-222, microtiter plate)
# setup conditions: 2 nM ^125 I-NGF, 2 hours at room temperature; read-out: Concentration (IC50, nM): inhibition of ^125 I-NGF binding to the extracellular domain of the p75 receptor
value kind: IC50 (nM)

// known answers, use as guide
compound	endpoint unit	IC50
Cn1c2ccc(NC(=O)c3ccc(Cl)cc3)cc2c(=O)n2nc(C(=O)O)cc12 [Example 3d]	nM	250
Cn1c2ccc(NC(=O)c3ccc(C(=O)O)cc3)cc2c(=O)n2nc(C(=O)O)cc12 [Example 3t]	nM	166
Cc1ccc2[nH]c3cc(C(=O)O)nn3c(=O)c2c1 [H Me H]	nM	12900
Cn1c2ccc(NC(=O)CCCC(=O)O)cc2c(=O)n2nc(C(=O)O)cc12 [Example 3x]	nM	36
Cn1c2ccc(NC(=O)Cc3ccccc3)cc2c(=O)n2nc(C(=O)O)cc12 [Example 3e]	nM	568
Cc1ccc(C(=O)Nc2ccc3c(c2)c(=O)n2nc(C(=O)O)cc2n3C)cc1 [Example 3b]	nM	180
Cn1c2ccc(NC(=O)Nc3ccccc3)cc2c(=O)n2nc(C(=O)O)cc12 [Example 3g]	nM	3880
Cn1c2ccc(NC(=O)c3ccccc3)cc2c(=O)n2nc(C(=O)O)cc12 [Example 3]	nM	228
Cn1c2ccccc2c(=O)n2nc(C(=O)O)cc12 [Me H H]	nM	30800
Cn1c2ccc(NC(=O)c3ccc(Cl)c(Cl)c3)cc2c(=O)n2nc(C(=O)O)cc12 [Example 3f]	nM	844

[P] Cn1c2ccc(NC(=O)CCC(=O)O)cc2c(=O)n2nc(C(=O)O)cc12 [Example 3w]
[Q] Cn1c2ccc(NC(=O)c3ccc(C(F)(F)F)cc3)cc2c(=O)n2nc(C(=O)O)cc12 [Example 3n]
QUERY: Lowest IC50? choose P or Q When you have decided, please share the label of that item.
RESULT: P
(P: 116 nM, Q: 2570 nM)
